tested_system: murine receptor (FDC-P1/ER cells) (Mus musculus)
Sequence (P14753 25-507): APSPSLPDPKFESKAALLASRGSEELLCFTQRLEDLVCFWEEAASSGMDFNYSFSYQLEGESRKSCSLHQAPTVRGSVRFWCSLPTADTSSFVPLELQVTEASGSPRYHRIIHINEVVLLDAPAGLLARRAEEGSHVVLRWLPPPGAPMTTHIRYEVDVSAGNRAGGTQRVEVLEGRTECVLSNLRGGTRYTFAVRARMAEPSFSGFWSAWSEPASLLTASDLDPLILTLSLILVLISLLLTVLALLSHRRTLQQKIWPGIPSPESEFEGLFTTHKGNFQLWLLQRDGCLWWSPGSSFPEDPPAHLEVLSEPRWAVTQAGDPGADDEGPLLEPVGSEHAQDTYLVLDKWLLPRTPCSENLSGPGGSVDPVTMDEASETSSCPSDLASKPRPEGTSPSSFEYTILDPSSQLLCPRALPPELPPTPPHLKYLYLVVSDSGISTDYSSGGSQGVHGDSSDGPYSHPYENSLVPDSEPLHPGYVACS
test: cell-based
conditions_used: EPO-ED50 (μM), Tables 17-19; amount for half maximal level of EPO dependent proliferation; IA = inactive
Residues, ends and D or L forms follow the SMILES beside them.
Below is a list of entries, each paired with its recorded EC50 value.
Write the value in µM as a bare number.

Name the recorded EC50 of the item CC(C)C[C@@H]1NC(=O)[C@@H]2CCCN2C(=O)CNC(=O)[C@H](Cc2ccccc2)NC(=O)[C@H](Cc2c[nH]cn2)NC(=O)[C@@H](NC(=O)[C@H](CO)NC(=O)[C@@H](N)Cc2ccc(O)cc2)CSSC[C@@H](C(=O)N[C@@H](CCCCN)C(N)=O)NC(=O)[C@H](C(C)C)NC(=O)[C@H](Cc2c[nH]c3ccccc23)NC(=O)[C@H]([C@@H](C)O)NC1=O [RWJ 61279] (HELM PEPTIDE1{Y.S.C.H.F.G.P.L.T.W.V.C.K.[am]}$PEPTIDE1,PEPTIDE1,3:R3-12:R3$$$V2.0) in your answer.
3

Name the recorded EC50 of the item CC(C)C[C@@H]1NC(=O)[C@@H]2CCCN2C(=O)CNC(=O)[C@H](Cc2ccccc2)NC(=O)[C@H](Cc2c[nH]cn2)NC(=O)[C@@H](NC(=O)[C@H](CO)NC(=O)[C@@H](N)Cc2ccc(O)cc2)CSSC[C@@H](C(=O)N[C@@H](CCCCN)C(=O)N2CCC[C@H]2C(N)=O)NC(=O)[C@H](C(C)C)NC(=O)[C@H](Cc2c[nH]c3ccccc23)NC(=O)[C@H]([C@@H](C)O)NC1=O [RWJ 61232] (HELM PEPTIDE1{Y.S.C.H.F.G.P.L.T.W.V.C.K.P.[am]}$PEPTIDE1,PEPTIDE1,3:R3-12:R3$$$V2.0) in your answer.
20

Name the recorded EC50 of the item CC(C)C[C@@H]1NC(=O)[C@@H]2CCCN2C(=O)CNC(=O)[C@H](Cc2ccccc2)NC(=O)[C@H](Cc2c[nH]cn2)NC(=O)[C@@H](NC(=O)[C@@H](N)Cc2ccc(O)cc2)CSSC[C@@H](C(N)=O)NC(=O)[C@H](C(C)C)NC(=O)[C@H](Cc2c[nH]c3ccccc23)NC(=O)[C@H]([C@@H](C)O)NC1=O [RWJ 61513] (HELM PEPTIDE1{Y.C.H.F.G.P.L.T.W.V.C.[am]}$PEPTIDE1,PEPTIDE1,2:R3-11:R3$$$V2.0) in your answer.
2

Please look at the following molecule next.
Name the recorded EC50 of the item CSCC[C@@H]1NC(=O)[C@H](Cc2c[nH]cn2)NC(=O)[C@@H](NC(=O)[C@H](C)NC(=O)[C@H](Cc2ccc(O)cc2)NC(=O)[C@H](CC(C)C)NC(=O)CNC(=O)CN)CSSC[C@@H](C(=O)N[C@@H](CCC(N)=O)C(=O)N2CCC[C@H]2C(=O)N[C@@H](CC(C)C)C(=O)N[C@@H](CCCNC(=N)N)C(=O)NCC(N)=O)NC(=O)[C@H](C(C)C)NC(=O)[C@H](Cc2c[nH]c3ccccc23)NC(=O)[C@H]([C@@H](C)O)NC(=O)[C@H](CCSC)NC(=O)[C@@H]2CCCN2C(=O)CNC1=O [RWJ 61718] in your answer.
0.1
